- System: E. coli ML 4707
- Protocol summary: MIC, in vitro antibacterial activity (standard strains)
- Assay type: cell-based, Escherichia coli
- Condition set: Escherichia coli, ML4707, 10^6 cells/ml; Gram -; Table 1; read-out: MIC
The entries below are paired with their reported MIC.
Only the number, expressed in µg/mL, is required.

// solved cases for MIC follow
>>> print(df.to_string())
                                   compound  quantitative_result
0  CNCC1CN(c2c(F)cc3c(=O)c(C(=O)O)cn(C4CC4)c3c2Cl)CC1C (stereo not drawn) [Example 12]                0.025
1  C[C@H]1CN(c2c(F)cc3c(=O)c(C(=O)O)cn(C4CC4)c3c2F)C[C@H]1N.Cl (relative stereo) [Example 20]                0.025
2  CCn1cc(C(=O)O)c(=O)c2cc(F)c(N3CCNCC3)cc21 [NFLX, norfloxacin, reference compound]                 0.05
3  CCn1cc(C(=O)O)c(=O)c2cc(F)c(N3C[C@@H](N)[C@@H](C)C3)c(F)c21 (relative stereo) [Example 22]                 0.05
4  CNCC1CN(c2c(F)cc3c(=O)c(C(=O)O)cn(C4CC4)c3c2F)CC1C (stereo not drawn) [Example 13]                 0.05

Switching to the query record.
Jot down MIC (E. coli ML 4707) of CCn1cc(C(=O)O)c(=O)c2cc(F)c(N3C[C@@H](N)[C@@H](C)C3)c(Cl)c21 (relative stereo) [Example 23] .
0.05

* * *

- Tested on: B. fragilis 0558
- Protocol summary: MIC, in vitro antibacterial activity (standard strains)
- Assay type: cell-based, Bacteroides fragilis
- Condition set: Bacteroides fragilis, 0558; 10^6 cells/ml; Gram -; read-out: MIC
Parameter measured: MIC (µg/mL)
Field: numeric (µg/mL). Do not append units.

Here is how some molecules turned out for MIC.
>>> df
                                   molecule  quantitative_result
0  C[C@H]1CN(c2cc3c(cc2F)c(=O)c(C(=O)O)cn3C2CC2)C[C@H]1N (relative stereo) [Example 33]                 1.56
1  CC1COc2c(N3C[C@@H](N)[C@@H](C)C3)c(F)cc3c(=O)c(C(=O)O)cn1c23.Cl (relative stereo) [Example 29]                 1.56
2  C[C@H]1CN(c2c(F)cc3c(=O)c(C(=O)O)cn4c3c2OC[C@@H]4C)C[C@H]1N.Cl (mixture of isomers) [Example 31]                 0.78

Read the next record carefully.
// Input: C[C@H]1CN(c2c(F)cc3c(=O)c(C(=O)O)cn(CCF)c3c2F)C[C@H]1N (relative stereo) [Example 25] . Output its MIC only.
3.13

* * *

- Tested on: E. coli ATCC 10536
- Protocol summary: MIC, in vitro antibacterial activity (standard strains)
- Assay type: cell-based, Escherichia coli
- Condition set: Escherichia coli, ATCC10536; 10^6 cells/ml; Gram -; read-out: MIC
Parameter measured: MIC (µg/mL)
Give your result in µg/mL as a bare value.

                                   compound  parameter_measured  unit_label  quantitative_result
0  C[C@@H]1CN(c2c(F)cc3c(=O)c(C(=O)O)cn(C4CC4)c3c2Cl)C[C@H]1N (relative stereo) [Example 17]                 MIC       µg/mL               0.0063
1  CNCC1CN(c2c(F)cc3c(=O)c(C(=O)O)cn(C4CC4)c3c2F)CC1C (stereo not shown) [Example 13]                 MIC       µg/mL                 0.05
2  C[C@H]1CN(c2c(F)cc3c(=O)c(C(=O)O)cn(C4CC4)c3c2Br)C[C@H]1N (relative stereo) [Example 21]                 MIC       µg/mL               0.0125
3  C[C@H]1CN(c2c(F)cc3c(=O)c(C(=O)O)cn(C4CC4)c3c2F)C[C@H]1N.Cl (relative stereo) [Example 20]                 MIC       µg/mL                0.025
4  CCNCC1CN(c2c(F)cc3c(=O)c(C(=O)O)cn(C4CC4)c3c2F)CC1C (stereo not shown) [Example 15]                 MIC       µg/mL                 0.05

Retrieve MIC on E. coli ATCC 10536; query CC1CN(c2c(F)cc3c(=O)c(C(=O)O)cn(C4CC4)c3c2Cl)CC1CN (stereo not shown) [Example 1]
0.025

// output MIC; input CC1COc2c(N3C[C@@H](N)[C@@H](C)C3)c(F)cc3c(=O)c(C(=O)O)cn1c23.Cl (relative stereo) [Example 29] ; system E. coli ATCC 10536
0.05

* * *

- System: K. pneumoniae 1-220S
- Protocol summary: MIC, in vitro antibacterial activity (standard strains)
- Format: cell-based, Klebsiella pneumoniae
- Condition set: Klebsiella pneumoniae, 1220S; 10^6 cells/ml; Gram -; read-out: MIC
Parameter measured: MIC (µg/mL)
Just the number in µg/mL, nothing appended.

The cases that follow already have their MIC on record.
In [3]: df
Out[3]:
                                   compound  quantitative_result
0  CCNCC1CN(c2c(F)cc3c(=O)c(C(=O)O)cn(C4CC4)c3c2F)CC1C (stereo not drawn)                  0.2
1  CCn1cc(C(=O)O)c(=O)c2cc(F)c(N3C[C@@H](N)[C@@H](C)C3)c(Cl)c21 (relative stereo)                  0.1
2  CC1CN(c2c(F)cc3c(=O)c(C(=O)O)cn(C4CC4)c3c2Cl)CC1N (stereo not drawn)                 0.05
3  CC1COc2c(N3C[C@@H](N)[C@@H](C)C3)c(F)cc3c(=O)c(C(=O)O)cn1c23.Cl (relative stereo)                  0.2
4  CC1CN(c2c(F)cc3c(=O)c(C(=O)O)cn(C4CC4)c3c2F)CC1N.Cl (stereo not drawn)                 0.05
5  C[C@H]1CN(c2c(F)cc3c(=O)c(C(=O)O)cn(CCF)c3c2F)C[C@H]1N (relative stereo)                  0.2
6  CNCC1CN(c2c(F)cc3c(=O)c(C(=O)O)cn(C4CC4)c3c2F)CC1C (stereo not drawn)                  0.2
7  CNCC1CN(c2c(F)cc3c(=O)c(C(=O)O)cn(C4CC4)c3c2Cl)CC1C (stereo not drawn)                  0.1
8  C[C@H]1CN(c2c(F)cc3c(=O)c(C(=O)O)cn(CCF)c3c2Cl)C[C@H]1N (relative stereo)                  0.2
9  CCn1cc(C(=O)O)c(=O)c2cc(F)c(N3CCNCC3)cc21 [NFLX, norfloxacin, reference compound]                  0.1

Provide only the value of recorded MIC for C[C@@H]1CN(c2c(F)cc3c(=O)c(C(=O)O)cn(C4CC4)c3c2Br)C[C@H]1N (relative stereo)
0.05

Please indicate MIC recorded for CCn1cc(C(=O)O)c(=O)c2cc(F)c(N3C[C@@H](N)[C@@H](C)C3)c(F)c21 (relative stereo)
0.1

Write down MIC measured for item C[C@H]1CN(c2c(F)cc3c(=O)c(C(=O)O)cn(C4CC4)c3c2Cl)C[C@H]1N (relative stereo)
0.05

For the compound C[C@H]1CN(c2c(F)cc3c(=O)c(C(=O)O)cn4c3c2OC[C@@H]4C)C[C@H]1N.Cl (mixture of isomers) , give its measured MIC value.
0.1

Assign MIC to the following record: C[C@H]1CN(c2cc3c(cc2F)c(=O)c(C(=O)O)cn3C2CC2)C[C@H]1N (relative stereo)
0.05

* * *

Overview of reported MIC across a group of compounds:
- Tested on: E. limosum KYA 8486
- Protocol summary: MIC, in vitro antibacterial activity (standard strains)
- Type: cell-based
- Condition set: Eubacterium limosum, KYA8486; 10^6 cells/ml; Gram +; read-out: MIC
Dear colleague, please return just the value in µg/mL, with no unit written.

>>> print(df.to_string())
                                   compound  parameter_measured  unit_label  quantitative_result
0  CCn1cc(C(=O)O)c(=O)c2cc(F)c(N3C[C@@H](N)[C@@H](C)C3)c(F)c21 (relative stereo) [Example 22]                 MIC       µg/mL                 6.25
1  C[C@H]1CN(c2cc3c(cc2F)c(=O)c(C(=O)O)cn3C2CC2)C[C@H]1N (relative stereo) [Example 33]                 MIC       µg/mL                  0.2
2  C[C@H]1CN(c2c(F)cc3c(=O)c(C(=O)O)cn(CCF)c3c2F)C[C@H]1N (relative stereo) [Example 25]                 MIC       µg/mL                 6.25

Now look at this entry.
Look up and report measured MIC (E. limosum KYA 8486) for the following compound: CC1CN(c2c(F)cc3c(=O)c(C(=O)O)cn(C4CC4)c3c2Cl)CC1N (stereo not shown) [Example 7]
0.2
